Target: T1, RBFOX1 RRM RbFoxmut (Fox-RRM*) (Homo sapiens, UniProt Q9NWB1 109-208, R118D;E147R;N151S;E152T)
T1 sequence: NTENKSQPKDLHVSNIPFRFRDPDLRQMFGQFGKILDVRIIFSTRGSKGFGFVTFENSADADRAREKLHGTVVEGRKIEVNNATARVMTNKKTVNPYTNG
Experiment: EMSA; HiTS-Eq, 1 nM pool, 10 min; buffer printed only for the single-RNA assays: 10 mM Tris pH 7.5, 150 mM NaCl, 3.4 mM EDTA, 0.001% NP-40, 30 C
Conditions: tags: His6 N-terminal (pET28a); label: 5' 32P
Over roughly 16,000 sequences, “ka relative to ugcaugu” has its median near 0.096; the highest 2% begin near 0.35. This is one part of a sample in which the highest values are shown more often than they occur.
Answer each item with its documented binding signal.

{"columns": ["Binder", "binding signal"],
 "data": [
  ["GGUCAAC (DNA:RNA) RNA: GGGAGACCGGAAUUCAGAUUGUCCGGUCAACUUAAAUCCCGUCGUAGCCACCA DNA 1: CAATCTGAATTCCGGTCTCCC DNA 2: TGGTGGCTACGACGGGATT", "0.052 KA relative to UGCAUGU"]
]}

Proceeding to the next binder to report its binding signal.
Challenge: In one line, give reported binding signal of the entry AUCUAGU (DNA:RNA) RNA: GGGAGACCGGAAUUCAGAUUGUCCAUCUAGUUUAAAUCCCGUCGUAGCCACCA DNA 1: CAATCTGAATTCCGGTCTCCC DNA 2: TGGTGGCTACGACGGGATT .
Response given: 0.14 KA relative to UGCAUGU
